Entries and their measured MIC follow.
# Tested on: Aspergillus niger
# assay summary: Antifungal activity against Aspergillus niger after 48 hr by agar streak dilution method
# Type: functional
endpoint name: MIC (µg/mL)

INSERT INTO assay_data (molecule, qual, reported_value) VALUES
  ('CC(=O)N1CCN(c2ccc(OCC3COC(Cn4ccnc4)(c4ccc(Cl)cc4Cl)O3)cc2)CC1 (stereo not given) [KETOCONAZOLE]', '≤', 3),
  ('Cc1cc(=O)oc2cc(Oc3nc(Nc4ccc(N5C(=O)C(CN6CCN(c7ccccn7)CC6)SC5c5ccc(O)cc5)cc4)nc(N(C)C)n3)ccc12 (stereo not given)', '=', 6.25),
  ('Cc1cc(=O)oc2cc(Oc3nc(Nc4ccc(N5C(=O)CSC5c5ccc(Cl)cc5Cl)cc4)nc(N(C)C)n3)ccc12 (stereo not given)', '=', 100),
  ('Cc1cc(=O)oc2cc(Oc3nc(Nc4ccc(/N=C/c5ccc(F)cc5)cc4)nc(N(C)C)n3)ccc12', '=', 50),
  ('Cc1cc(=O)oc2cc(Oc3nc(Nc4ccc(N5C(=O)C(CN6CCN(c7ccccn7)CC6)SC5c5ccccc5)cc4)nc(N(C)C)n3)ccc12 (stereo not given)', '=', 100),
  ('COc1ccc(/C=N/c2ccc(Nc3nc(Oc4ccc5c(C)cc(=O)oc5c4)nc(N(C)C)n3)cc2)cc1', '=', 50),
  ('Cc1cc(=O)oc2cc(Oc3nc(Nc4ccc(N5C(=O)C(CN6CCN(c7ccccn7)CC6)SC5c5ccc([N+](=O)[O-])cc5)cc4)nc(N(C)C)n3)ccc12 (stereo not given)', '=', 100),
  ('COc1ccc(C2SC(CN3CCN(c4ccccn4)CC3)C(=O)N2c2ccc(Nc3nc(Oc4ccc5c(C)cc(=O)oc5c4)nc(N(C)C)n3)cc2)cc1 (stereo not given)', '=', 25),
  ('Cc1cc(=O)oc2cc(Oc3nc(Nc4ccc(N5C(=O)CSC5c5ccccc5Br)cc4)nc(N(C)C)n3)ccc12 (stereo not given)', '=', 100),
  ('Cc1ccc(/C=N/c2ccc(Nc3nc(Oc4ccc5c(C)cc(=O)oc5c4)nc(N(C)C)n3)cc2)cc1', '=', 50),
  ('Cc1cc(=O)oc2cc(Oc3nc(Nc4ccc(/N=C/c5ccc(O)cc5O)cc4)nc(N(C)C)n3)ccc12', '=', 100),
  ('Cc1ccc(C2SCC(=O)N2c2ccc(Nc3nc(Oc4ccc5c(C)cc(=O)oc5c4)nc(N(C)C)n3)cc2)cc1 (stereo not given)', '=', 25),
  ('COc1ccc(C2SC(CN3CCN(c4ccccn4)CC3)C(=O)N2c2ccc(Nc3nc(Oc4ccc5c(C)cc(=O)oc5c4)nc(N(C)C)n3)cc2)cc1OC (stereo not given)', '=', 50),
  ('Cc1cc(=O)oc2cc(Oc3nc(Nc4ccc(N5C(=O)C(CN6CCN(c7ccccn7)CC6)SC5c5ccccc5C(=O)O)cc4)nc(N(C)C)n3)ccc12 (stereo not given)', '=', 100),
  ('Cc1cc(=O)oc2cc(Oc3nc(Nc4ccc(N5C(=O)C(CN6CCN(c7ccccn7)CC6)SC5c5cccc(F)c5)cc4)nc(N(C)C)n3)ccc12 (stereo not given)', '=', 12.5);
